- Assay Remarks: Plasma pharmacokinetics of 17-DMAG by HPLC-MS, non-compartmental analysis
- Format: in vivo, human
- Test Parameters: human, iv, 20 mg/m^2
Parameter Measured: clearance (mL/min)
// return numeric value only (unit: mL/min, not printed)

Query: Given the entry CO[C@H]1/C=C\C=C(/C)C(=O)NC2=CC(=O)C(NCCN(C)C)=C(C[C@@H](C)C[C@H](OC)[C@H](O)[C@@H](C)/C=C(\C)[C@@H]1OC(N)=O)C2=O [17-DMAG] , report its measured clearance.
Response: 345

---

- Assay Remarks: Plasma pharmacokinetics of 17-DMAG by HPLC-MS, non-compartmental analysis
- Assay type: in vivo, human
- Test Parameters: human, iv, 2.5 mg/m^2
Parameter Measured: AUC (µM·h)
// return numeric value only (unit: µM·h, not printed)

Query: Given the entry CO[C@H]1/C=C\C=C(/C)C(=O)NC2=CC(=O)C(NCCN(C)C)=C(C[C@@H](C)C[C@H](OC)[C@H](O)[C@@H](C)/C=C(\C)[C@@H]1OC(N)=O)C2=O [17-DMAG] , report its measured AUC.
Response: 0.581
